experimentDescription: Bioavailability in rat at 10 mg/kg, ip
Type: ADME, organism-based
setupConditions: in vivo
measuredParameter: bioavailability (%)
Dear colleague, please return just the value in %, with no unit written.

Task: Entry CCOc1cccc(C2(N3CCN(c4ccccn4)CC3)C3CC(C)CC32)c1 (stereo unspecified) : reported bioavailability = ?
Result: 40

----------
experimentDescription: Aqueous solubility of the compound in 40% aqueous trappsol
Type: physicochemical
measuredParameter: solubility (µg/mL)
Answer in µg/mL, number only, no unit symbol.

Task: What does the record list as solubility for CCOc1cccc(C2(N3CCN(c4ncccn4)CC3)C3CC(C)CC32)c1 (configuration not stated) ?
Result: 10000
